Where do these numbers come from? They come from ChEMBL document CHEMBL1140182.

# TARGET: Neuronal acetylcholine receptor subunit alpha-7 (Homo sapiens)
# Sequence (P36544 whole entry): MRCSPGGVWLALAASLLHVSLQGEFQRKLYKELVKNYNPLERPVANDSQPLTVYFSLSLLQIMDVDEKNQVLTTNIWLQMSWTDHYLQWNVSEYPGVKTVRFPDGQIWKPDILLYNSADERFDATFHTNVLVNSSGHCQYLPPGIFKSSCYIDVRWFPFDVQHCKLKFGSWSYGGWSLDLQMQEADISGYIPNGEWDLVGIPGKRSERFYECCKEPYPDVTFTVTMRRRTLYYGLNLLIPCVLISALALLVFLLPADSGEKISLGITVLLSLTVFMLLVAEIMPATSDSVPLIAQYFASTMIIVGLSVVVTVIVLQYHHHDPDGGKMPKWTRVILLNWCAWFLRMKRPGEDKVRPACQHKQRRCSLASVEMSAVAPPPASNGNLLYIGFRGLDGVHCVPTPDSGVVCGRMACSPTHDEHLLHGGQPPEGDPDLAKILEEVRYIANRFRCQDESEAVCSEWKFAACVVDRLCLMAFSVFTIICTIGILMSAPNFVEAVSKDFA
# ASSAY_TEXT: Agonist activity at human cloned wild-type alpha7 nAChR expressed in Xenopus laevis oocytes assessed as channel opening by voltage clamp electrophysiology
# Assay type: functional, cell-based, Oocyte
ASSAY_METRIC: pEC50
Answers are plain numbers, as −log10 of the molar value.

Query: Which pEC50 value is on record for O=C1NC[C@@]2(CN3CCC2CC3)O1 ?
Reply: 5.44
